This collection of values is drawn from PubChem BioAssay AID651650.

- Measured On: Neuropilin-1 (Homo sapiens) (UniProt O14786)
- Sequence (O14786 whole entry, looked up): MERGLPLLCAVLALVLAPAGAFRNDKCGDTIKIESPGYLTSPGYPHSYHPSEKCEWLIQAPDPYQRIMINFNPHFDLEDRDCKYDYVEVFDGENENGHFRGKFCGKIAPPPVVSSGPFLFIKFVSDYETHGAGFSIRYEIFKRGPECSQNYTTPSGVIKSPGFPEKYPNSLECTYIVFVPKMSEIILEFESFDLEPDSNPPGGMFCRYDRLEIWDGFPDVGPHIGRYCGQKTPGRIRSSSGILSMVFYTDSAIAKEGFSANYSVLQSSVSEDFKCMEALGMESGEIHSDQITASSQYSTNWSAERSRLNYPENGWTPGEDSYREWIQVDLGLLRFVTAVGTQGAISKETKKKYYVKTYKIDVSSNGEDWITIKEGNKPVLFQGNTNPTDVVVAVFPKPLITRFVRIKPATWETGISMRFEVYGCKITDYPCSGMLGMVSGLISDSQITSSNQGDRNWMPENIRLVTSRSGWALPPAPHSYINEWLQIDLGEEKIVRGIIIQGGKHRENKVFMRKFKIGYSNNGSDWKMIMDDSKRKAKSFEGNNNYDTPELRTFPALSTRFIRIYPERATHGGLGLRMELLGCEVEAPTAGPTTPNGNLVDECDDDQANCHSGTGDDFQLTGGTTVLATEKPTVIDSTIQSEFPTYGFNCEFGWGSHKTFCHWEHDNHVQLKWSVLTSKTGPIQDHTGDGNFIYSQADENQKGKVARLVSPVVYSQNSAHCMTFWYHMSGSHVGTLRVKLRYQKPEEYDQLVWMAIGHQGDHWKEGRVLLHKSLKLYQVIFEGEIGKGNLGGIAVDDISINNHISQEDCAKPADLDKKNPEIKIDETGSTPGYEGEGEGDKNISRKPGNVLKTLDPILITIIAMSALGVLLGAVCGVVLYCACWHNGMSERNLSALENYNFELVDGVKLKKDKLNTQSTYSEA
- Test Name: NRP-1 b1b2 CendR peptide binding inhibitors, dose response, biochemical, FP and AlphaScreen panel (AID 651650)
- Measurement Context: NRP-1 b1b2 / RPARPAR peptide binding, FP or AlphaScreen; AlphaScreen, mean of runs
The source made the active and inactive calls.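 How the source made its calls: active means mean IC50 below 20 µM in each of the two panels, so potent in both; inactive means the rest.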
Tick one outcome: t (active), f (inactive)

What did the test return for NC(=O)C1CCCN(C(=O)c2ccc3nc(Cc4cccc(Cl)c4)oc3c2)C1 (stereo unspecified) ? t

Record: CC1CCN(C(=O)CSc2nncn2C)CC1 f

Record: Cc1ccc(C(=O)N/C(=C\c2ccc(-c3ccccc3[N+](=O)[O-])o2)C(=O)NCCCN2CCOCC2)cc1 f

Record: O=C(Cn1ccc(NC(=O)OCc2ccccc2)nc1=O)NCCCn1ccnc1 f

Record: COC(=O)c1ccccc1NC(=O)CSc1nc(C)cc(C)n1 f

Record: CCCc1c(O)c2ccccc2[nH]c1=O f

Record: C[C@@H](NC(=O)c1[nH]cnc1C(=O)Nc1cccc(Cl)c1)c1ccccc1 f

Record: CCCc1c(C)nc(N2CCN(c3ccccc3OC)CC2)[nH]c1=O f

Record: COc1ccc([C@H]2/C=C\CN(S(C)(=O)=O)[C@@H](C)C(=O)N2Cc2ccc(F)cc2)cc1 f

Record: CC(C)(C)N(NC(=O)Nc1ccc(Cl)cc1)C(=O)c1ccccc1 f

Record: COc1cccc(C(=O)N2N=C(c3ccccc3)CC2(O)C(F)(F)F)c1 (stereo unspecified) f
